Where do these numbers come from? They come from patent US20240109861A1.

- procedure text: Pharmacokinetic study in rats
- Type: in vivo, male Wistar Han rats
- test context: male, Wistar Han, rat, plasma, PO (5 mpk or 30 mpk), dose-normalized data
parameter measured: Cmax (µM)

>>> meas_value("CCO[C@H]1CCN(Cc2c(OC)cc(C)c3[nH]ccc23)[C@H](c2ccc(C(=O)O)cc2)C1 [LNP023, reference compound]")
0.379

----------
- procedure text: Pharmacokinetic study in rats
- Type: in vivo, male Wistar Han rats
- test context: male, Wistar Han, rat, plasma, 1 mg/kg, IV (1 mpk)
parameter measured: half-life

>>> meas_value("CCO[C@H]1CCN(Cc2c(OC)cc(C)c3[nH]ccc23)[C@H](c2ccc(C(=O)O)cc2)C1 [LNP023, reference compound]")
"1.2 h"

----------
- procedure text: Pharmacokinetic study in rats
- Assay type: in vivo, male Wistar Han rats
- test context: male, Wistar Han, rat, plasma, 30 mg/kg, PO, a dose of 30 mpk, dose-normalized data
parameter measured: AUC(0-t)

>>> meas_value("CCO[C@H]1CCN(Cc2c(OC)cc(C)c3[nH]ccc23)[C@H](c2ccc(C(=O)O)cc2)C1 [LNP023, reference compound]")
"2.19 µM·h"

----------
- procedure text: Pharmacokinetic study in mice
- Format: in vivo, male C57BL/6J mice
- test context: male, C57BL/6J, mouse, plasma, 1 mg/kg, IV (1 mpk)
parameter measured: clearance (mL/min/kg)

>>> meas_value("CCO[C@H]1CCN(Cc2c(OC)cc(C)c3[nH]ccc23)[C@H](c2ccc(C(=O)O)cc2)C1 [LNP023, reference compound]")
18.4

----------
- procedure text: Pharmacokinetic study in mice
- Format: in vivo, male C57BL/6J mice
- test context: male, C57BL/6J, mouse, plasma, 10 mg/kg, PO (10 mpk)
parameter measured: AUC(0-t)

>>> meas_value("CCO[C@H]1CCN(Cc2c(OC)cc(C)c3[nH]ccc23)[C@H](c2ccc(C(=O)O)cc2)C1 [LNP023, reference compound]")
"9.3 µM·h"

----------
- procedure text: Pharmacokinetic study in rats
- Format: in vivo, male Wistar Han rats
- test context: PO (5 mpk or 30 mpk), dose-normalized data
parameter measured: Cmax

>>> meas_value("COc1cc(C)c2[nH]ccc2c1CN1CC[C@@H](C2CC2)C[C@H]1c1ccc(C(=O)O)cc1")
"838 nM"
